Measured AC50 accompanies every entry in the list below.
target: Muscarinic acetylcholine receptor M2 (Homo sapiens); format: functional, cell-based; note: assay procedure not described here
Sequence (P08172 whole entry): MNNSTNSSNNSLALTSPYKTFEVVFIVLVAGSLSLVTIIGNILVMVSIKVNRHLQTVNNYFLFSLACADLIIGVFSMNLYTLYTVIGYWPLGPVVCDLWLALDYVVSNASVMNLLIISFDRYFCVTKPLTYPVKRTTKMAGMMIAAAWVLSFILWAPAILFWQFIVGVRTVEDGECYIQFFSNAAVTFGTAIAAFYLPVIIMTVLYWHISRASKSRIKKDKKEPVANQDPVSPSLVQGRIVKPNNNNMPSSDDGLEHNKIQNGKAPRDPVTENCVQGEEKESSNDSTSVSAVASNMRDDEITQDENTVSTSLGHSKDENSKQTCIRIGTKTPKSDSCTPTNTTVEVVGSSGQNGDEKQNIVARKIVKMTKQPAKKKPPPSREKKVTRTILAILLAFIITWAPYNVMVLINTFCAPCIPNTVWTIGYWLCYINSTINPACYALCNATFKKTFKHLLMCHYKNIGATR

Recorded results for 3 compounds are shown here.
Nc1ccn([C@H]2CC[C@@H](CO)O2)c(=O)n1	> 10 µM
CCC(C)n1ncn(-c2ccc(N3CCN(c4ccc(OCC5COC(Cn6cncn6)(c6ccc(Cl)cc6Cl)O5)cc4)CC3)cc2)c1=O (centres undefined)	> 30 µM
Cc1nnc2n1-c1ccc(Cl)cc1C(c1ccccc1Cl)=NC2	> 10 µM

Consider the record given below.
[in] API: value(readout= AC50, system= Muscarinic acetylcholine receptor M2 (Homo sapiens), query= Cc1c(OCC(F)(F)F)ccnc1C[S+]([O-])c1nc2ccccc2[nH]1 (centres undefined) ); note: assay procedure not described here
[out] > 10 µM
